src = the RepoRT retention time repository (doi:10.1016/j.foodchem.2021.129757)

- assay_method_text: RP, 50 × 0.5 mm, 2.7 µm, 35 °C, 0.01 mL/min, estimated dead time 0.62 min; A: water + 0.1% formic acid, pH 3; B: acetonitrile + 0.1% formic acid, pH 3; gradient (min/%B) 0/5 12/95 14/95 16/5
- test_settings: stereoisomer not certain
Note: every record was labeled by where its LC retention time sits among bucket 1 (below 3 min), bucket 2 (3 min to below 5 min), bucket 3 (5 min or more)

molecule: CC1OC(OC2C(Oc3cc(O)c4c(c3)OC(c3ccc(O)cc3)CC4=O)OC(CO)C(O)C2O)C(O)C(O)C1O (configuration not stated)
group_label: bucket 2

molecule: OCC1OC(Oc2cc3c(O)cc(O)cc3[o+]c2-c2ccc(O)c(O)c2)C(O)C(O)C1O (configuration not stated) [Cyanidin 3-O-glucoside]
group_label: bucket 2

molecule: COc1ccc(C(=O)O)cc1OC
group_label: bucket 2

molecule: COc1cc(/C=C/C(=O)O)ccc1O
group_label: bucket 2

molecule: O=C(O)C=Cc1ccc(O)cc1
group_label: bucket 2

molecule: O=C(O)c1cc(O)c(O)c(O)c1
group_label: bucket 1

Which bin, given its LC retention time, does O=C(O)CCc1ccc(O)c(O)c1 [Dihydrocaffeic acid] occupy?
bucket 1

Which bin, given its LC retention time, does O=C(O)CNC(=O)c1ccccc1 occupy?
bucket 1

Which bin, given its LC retention time, does COc1cc(C=O)ccc1O occupy?
bucket 2

Which bin, given its LC retention time, does Cn1cnc2c1c(=O)[nH]c(=O)n2C occupy?
bucket 1

Which bin, given its LC retention time, does O=C(C=Cc1ccc(O)c(O)c1)OC1CC(O)(C(=O)O)CC(O)C1O (configuration not stated) occupy?
bucket 2

Which bin, given its LC retention time, does CC12CCc3occc3C1CCC13CC(CCC12)C(O)(CO)C3 (configuration not stated) occupy?
bucket 3

Which bin, given its LC retention time, does O=c1c(O)c(-c2ccc(OS(=O)(=O)O)c(O)c2)oc2cc(OS(=O)(=O)O)cc(O)c12 [Quercetin disulfate] occupy?
bucket 2

Which bin, given its LC retention time, does Oc1cc(O)c2c(c1)OC1(c3ccc(O)c(O)c3)Oc3cc(O)c4c(c3C2C1O)OC(c1ccc(O)c(O)c1)C(O)C4 (configuration not stated) occupy?
bucket 2

* * *

- assay_method_text: RP, Agilent ZORBAX RRHD Eclipse Plus C18, 50 × 2.1 mm, 1.8 µm, 30 °C, 0.4 mL/min, estimated dead time 0.28 min; A: water + 0.1% formic acid, pH 3; B: acetonitrile + 0.1% formic acid, pH 3; gradient (min/%B) 0/1 5/10 8/25 9.1/99 10/99 12/99
- test_settings: stereoisomer not certain
# log10(LC retention time) annotations
Scale type: logarithmic (base 10). Underlying LC retention time unit: min.

Which log10(LC retention time) is reported for this molecule? O=S(=O)(O)Oc1c(O)cccc1O [Pyrogallol 2-O-sulfate]
0.13

Which log10(LC retention time) is reported for this molecule? O=C(O)CCc1cccc(O)c1 [3-(3-hydroxyphenyl)propanoic acid]
0.86

Which log10(LC retention time) is reported for this molecule? O=C(O)C=Cc1ccc(OS(=O)(=O)O)cc1 [p-Coumaric acid 4-O-sulfate]
0.58

Which log10(LC retention time) is reported for this molecule? O=C(O)C=Cc1ccc(OS(=O)(=O)O)c(O)c1 [caffeic acid-4-O-sulfate]
0.74

Which log10(LC retention time) is reported for this molecule? O=S(=O)(O)Oc1cccc(O)c1O [Pyrogallol-1-O-sulfate]
-0.11

* * *

- assay_method_text: RP, Merck Supelco SUPELCOSIL LC-C18, 250 × 4.6 mm, 5 µm, 40 °C, 1 mL/min, estimated dead time 2.6 min; A: water + 0.1% trifluoroacetic acid, pH 2; B: acetonitrile + 0.1% trifluoroacetic acid, pH 2; gradient (min/%B) 0/5 45/35 47/75 49/35 50/5
- test_settings: stereoisomer not certain
measured_property: LC retention time

Which LC retention time is reported for this molecule? CC1OC(OCC2OC(Oc3cc4c(O)cc(=O)cc-4oc3-c3ccc(O)cc3)C(O)C(O)C2O)C(O)C(O)C1O (configuration not stated) [Pelargonidin-3-O-rutinoside]
24.3 min

Which LC retention time is reported for this molecule? O=C(C=Cc1ccc(O)c(O)c1)OC1C(O)CC(O)(C(=O)O)CC1O (configuration not stated)
14.1 min

Which LC retention time is reported for this molecule? O=c1oc2c(O)c(O)cc3c(=O)oc4c(O)c(O)cc1c4c23
24.8 min

* * *

- assay_method_text: RP, Waters ACQUITY UPLC BEH C18, 100 × 2.1 mm, 1.7 µm, 65 °C, 0.4 mL/min, estimated dead time 0.55 min; A: water + 0.1% formic acid, pH 3; B: 80% acetonitrile + 20% acetone + 0.1% formic acid, pH 3; gradient (min/%B) 0/0 5/100 5.5/0 6/0
- test_settings: stereoisomer not certain
Counter-ions that a name gives are not always drawn.
measured_property: LC retention time (min)
Give the number; min is assumed, so skip it.

compound: O=Cc1ccc(O)cc1 [4-Hydroxybenzaldehyde]
measured_property: LC retention time
quantitative_result: 1.92
//
compound: COc1cc(C(=O)O)cc(OC)c1O
measured_property: LC retention time
quantitative_result: 1.8
//
compound: O=C(C=Cc1ccc(O)c(O)c1)OC1CC(O)(C(=O)O)CC(O)C1O (configuration not stated)
measured_property: LC retention time
quantitative_result: 1.64
//
compound: Cc1ccccc1C(=O)NCC(=O)O
measured_property: LC retention time
quantitative_result: 1.96

Which LC retention time is reported for this compound? O=C(O)c1ccc(O)c(O)c1
1.48

Which LC retention time is reported for this compound? O=S(=O)(O)Oc1c[nH]c2ccccc12 [3-Indoxyl sulfate]
1.68

Which LC retention time is reported for this compound? Cc1ccccc1OS(=O)(=O)O [o-Cresol sulfate]
1.93

* * *

- assay_method_text: RP, Waters Atlantis T3, 100 × 2.1 mm, 3 µm, 40 °C, 0.3 mL/min, estimated dead time 0.73 min; A: water + 0.1% trifluoroacetic acid, pH 2; B: acetonitrile + 0.1% trifluoroacetic acid, pH 2; gradient (min/%B) 0/10 1/10 6/40 7/50 8/50 14/70 16/80 20/10 25/10
- test_settings: stereoisomer not certain
# LC retention time annotations
Give the number; min is assumed, so skip it.

Solved cases below.
compound: O=C(CCc1ccc(O)cc1)c1c(O)cc(O)cc1O
LC retention time, min: 10
--
compound: COc1ccc(C2CC(=O)c3c(O)cc(OC4OC(COC5OC(C)C(O)C(O)C5O)C(O)C(O)C4O)cc3O2)cc1O (centres undefined)
LC retention time, min: 10
--
compound: O=c1cc(-c2ccc(O)cc2)oc2cc(O)cc(O)c12
LC retention time, min: 10.1
--
compound: O=c1cc(-c2ccc(O)c(O)c2)oc2cc(O)cc(O)c12
LC retention time, min: 9.3
--
compound: CC=C1C(OC2OC(CO)C(O)C(O)C2O)OC=C(C(=O)OC)C1CC(=O)OCCc1ccc(O)c(O)c1 (centres undefined)
LC retention time, min: 8.38

Which LC retention time is reported for this compound? O=C(CCc1ccc(O)cc1)c1c(O)cc(O)cc1OC1OC(CO)C(O)C(O)C1O (centres undefined)
8.22

Which LC retention time is reported for this compound? COc1ccc(C2CC(=O)c3c(O)cc(O)cc3O2)cc1O (centres undefined)
10.4

Which LC retention time is reported for this compound? CC1OC(OCC2OC(Oc3cc(O)c4c(c3)OC(c3ccc(O)cc3)CC4=O)C(O)C(O)C2O)C(O)C(O)C1O (centres undefined)
7.65

Which LC retention time is reported for this compound? CC1OC(OCC2OC(Oc3c(-c4ccc(O)c(O)c4)oc4cc(O)cc(O)c4c3=O)C(O)C(O)C2O)C(O)C(O)C1O (centres undefined)
7.12

* * *

# LC retention time annotations
- assay_method_text: RP, Phenomenex Luna C18, 150 × 4.6 mm, 3 µm, 25 °C, 0.5 mL/min, estimated dead time 3.2 min; A: water + 0.1% formic acid, pH 3; B: acetonitrile + 0.1% formic acid, pH 3; gradient (min/%B) 0/0 30/30 35/40 50/80 52/80 60/0 65/0
- test_settings: stereoisomer not certain
Give the number; min is assumed, so skip it.

Which LC retention time is reported for this compound? O=C(C=Cc1ccc(O)c(O)c1)OC1CC(O)(C(=O)O)CC(O)C1O (stereo not drawn) [Chlorogenic acid]
12.3

* * *

- assay_method_text: RP, 150 × 2.1 mm, 2.6 µm, 40 °C, 0.35 mL/min, estimated dead time 0.94 min; A: water + 0.1% formic acid, pH 3; B: acetonitrile + 0.1% formic acid, pH 3; gradient (min/%B) 0/0 1/5 7/45 8.5/80 10.5/80 11/5 12/5
- test_settings: stereoisomer not certain
measured_property: LC retention time (min)
Give the number; min is assumed, so skip it.

Solved cases below.
molecule: O=c1ccc2ccc(O)c(O)c2o1 [7,8-Dihydroxycoumarin]
measured_property: LC retention time
quantitative_result: 4.64

molecule: O=c1c(OC2OC(CO)C(O)C(O)C2O)c(-c2ccc(OC3OC(CO)C(O)C(O)C3O)c(O)c2)oc2cc(O)cc(O)c12 (stereo not drawn) [Quercetin-3,4'-diglucoside]
measured_property: LC retention time
quantitative_result: 5.11

// below: LC retention time requested for another molecule
Which LC retention time is reported for this molecule? O=C(O)Cc1ccc(O)c(O)c1 [3,4-Dihydroxyphenylacetic acid]
7.28
